Reported pIC50 values for the following molecules.
system_under_test: NDM-1 (Klebsiella pneumoniae)
Sequence (C7C422 29-270, looked up, species assumed): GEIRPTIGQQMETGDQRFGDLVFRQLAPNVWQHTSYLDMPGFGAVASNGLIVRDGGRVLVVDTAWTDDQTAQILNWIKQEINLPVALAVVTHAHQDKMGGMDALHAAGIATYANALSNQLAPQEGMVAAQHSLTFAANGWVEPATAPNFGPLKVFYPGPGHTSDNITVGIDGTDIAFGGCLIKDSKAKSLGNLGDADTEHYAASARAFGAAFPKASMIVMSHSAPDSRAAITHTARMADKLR
method_description: Enzyme activity: determination of IC50, fluorescence assay with CCF2-FA substrate
Type: biochemical
condition: enzyme 1 pM, CCF2-FA 1.25 μM, 2 hours at 25° C.; read-out: NDM1 IC50
When answering, recall that pIC50 equals minus log10 of the concentration in mol/L, and write that number alone.

Reference set, count: 3
| molecule | system_under_test | pIC50 |
| --- | --- | --- |
| O=C(O)[C@@H](CCC1CCCCC1)[C@H](Cc1ccccc1)c1nnn[nH]1 [Example 11] | NDM-1 (Klebsiella pneumoniae) | 7.24 |
| CCC[C@H](C(=O)O)[C@H](Cc1ccc(NCCO)nc1)c1nnn[nH]1 [Example 129] | NDM-1 (Klebsiella pneumoniae) | 7.11 |
| CC(C)[C@H](C(=O)O)[C@H](Cc1ccc(C2CCNC2)cc1)c1nnn[nH]1 (some centres unmarked) [Example 78] | NDM-1 (Klebsiella pneumoniae) | 7.64 |

Input line: Which value of pIC50 has been reported for CC(C)C[C@H](C(=O)O)[C@H](Cc1ccc(N)nc1)c1nnn[nH]1 [Example 112, 2,2,2-trifluoroacetate] in the records?
Output line: 6.96

Input line: Name the recorded pIC50 for CCC[C@H](C(=O)O)[C@H](Cc1ccc(-c2cccc(CN)c2)cc1)c1nn[nH]n1 [Example 210] .
Output line: 7.00

Input line: Given the molecule C[C@@H](c1ccccc1)[C@H](c1nnn[nH]1)[C@H](CCF)C(=O)O [Example 28] , what is its reported pIC50?
Output line: 6.51

Input line: # query: pIC50 of entry O=C(O)[C@@H](CC1CCCC1)[C@H](Cc1ccccc1)c1nnn[nH]1 [Example 10]
Output line: 7.33

Input line: Look up pIC50: CCC[C@H](C(=O)O)[C@H](Cc1ccc(-c2ccc3nncn3c2)cc1)c1nnn[nH]1 [Example 239]
Output line: 7.70

Input line: Field request: pIC50 | item: CCC[C@H](C(=O)O)[C@H](Cc1ccc(N2CCN3CCCC3C2)cc1)c1nn[nH]n1 (some centres unmarked) [Example 232]
Output line: 6.74

Input line: // lookup pIC50 for CC(C)[C@H](C(=O)O)[C@H](Cc1ccccc1C1=CCNC1)c1nnn[nH]1 [Example 70]
Output line: 6.74

Input line: Give its pIC50 value. Item: CCC[C@H](C(=O)O)[C@H](Cc1ccc(C(N)=O)cn1)c1nnn[nH]1 [Example 93]
Output line: 6.24

Input line: # query: pIC50 of entry CCC[C@H](C(=O)O)[C@H](Cc1ccc(NCCn2ccnn2)cc1)c1nn[nH]n1 [Example 221]
Output line: 7.08

Input line: Fill in the blank: the reported pIC50 of CCC[C@H](C(=O)O)[C@H](Cc1ccc(Oc2ccc(CN)cc2)nc1)c1nnn[nH]1 [Example 131] is ____.
Output line: 7.92
